B1: glmS ribozyme (parent)
chain: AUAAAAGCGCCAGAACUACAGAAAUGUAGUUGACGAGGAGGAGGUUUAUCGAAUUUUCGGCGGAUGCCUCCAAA

Variants of: B1
Assay: self-cleavage kobs at 10000 uM GlcN6P; higher = faster cleavage; RNA array
Conditions: with glucosamine-6-phosphate
Fewer inactive variants are shown than the library holds.
# Lookup of reported self-cleavage kobs at 10000 uM GlcN6P keyed by entry
Supply the numeric figure in s⁻¹, leaving out any unit text.

Here's what some known entries look like.
{"columns": ["Entry Sequence", "self-cleavage kobs at 10000 uM GlcN6P / s⁻¹"],
 "data": [
  ["AUAAAAGCGCCAGAACUACAGAAAUGUAGUUGACGAGGAGGAGGUUUAUCGAUUUUUUGGCGGAUGCCUCCAAA [A53U C58U]", "5.43e-05"],
  ["AUAAAAGCGCUAGACCUACAGAAAUGUAGUUGACGAGGAGGAGGUUUAUCUAAUUUUCGGCGGAUGCCUACAAA [C11U A15C G51U C70A]", "5.08e-05"],
  ["AUAAAAGCGCCAGAAUUACAGAAAUGUAGUUGACGAAGAGGAGGUUUAUCGAACUUUCGGCGGAUGCCUCCAAA [C16U G37A U54C]", 0.00176],
  ["AUAAAAGCGCCAGAACUACAGAAAUGUAGUUGACGAGGAGGAGGUUUAUCGAGUUUUCGGCGGAUUCCUCCAAA [A53G G66U]", 0.00154],
  ["AUAAAAGCGCCAGAACUACAGAAAUGUAGCUGACGAGGAGGAGGUUUAUCGAAGUUUCGGCGGAUGCCUCCAAA [U30C U54G]", 0.000203]
]}

Data request: I would be grateful if you could share the reported self-cleavage kobs at 10000 uM GlcN6P for AUAAAAGCGCCAGAACUACAGAAAUGUAGUUGACGAGGAGGAGGUCUAUCGAAUUUCCGGCGGAUGCCUCCAAA [U46C U57C] .
Data returned: 7.09e-05

Data request: I would be grateful if you could share the reported self-cleavage kobs at 10000 uM GlcN6P for AUAAAAGCGCCAGAACUACAGAAAUGUAGUUGACGAGGAGGAGGGUUAUCGAAUUUUCAGCGGAUGCCUCCAAA [U45G G59A] .
Data returned: 7.24e-05

Data request: I would be grateful if you could share the reported self-cleavage kobs at 10000 uM GlcN6P for AUAAAAGCGCCAGGACUACAGAAAUGUAGUUGACGAGGAGGAGGUUUAUCGAAUUUUAGGCGGAUGCCUCCAAA [A14G C58A] .
Data returned: 0.0012
